The reported measurements were obtained from ChEMBL document CHEMBL4270582.

- System: HL-60
- Experimental Details: Antiproliferative activity against human HL60 cells after 24 hrs by MTT assay
- Type: functional, cell-based
- Recorded Conditions: HL-60, 24 h

Given Smiles	Unit Symbol	IC50
C=C1C[C@@]23CC[C@H]4[C@@](C)(CCC[C@@]4(C)C(=O)NCCNC(=O)[C@]4(C)CCC[C@@]5(C)[C@@H]6CC[C@]7(O)C[C@@]6(CC[C@@H]54)CC7=C)[C@@H]2CC[C@]1(O)C3	µM	4.3
C[C@@]12CC[C@@H]3[C@@](CC[C@H]4[C@@]3(C)CCC[C@@]4(C)C(=O)NCCNC(=O)[C@]3(C)CCC[C@@]4(C)[C@@H]5CC[C@@]6(C)C[C@]5(CC[C@@H]43)CC6=O)(CC1=O)C2	µM	4.8

---

- System: HL-60
- Experimental Details: Antiproliferative activity against human HL60 cells after 48 hrs by MTT assay
- Assay type: functional, cell-based
- Recorded Conditions: HL-60, 48 h
pIC50: −log10 of the molar value.
Readout: pIC50

                               given_smiles  measured_number
0  C=C1C[C@@]23CC[C@H]4[C@@H](CCC[C@@]4(C)COC(=O)/C=C/C(F)(F)F)[C@@H]2CC[C@]1(O)C3             5.54

---

- System: HeLa
- Experimental Details: Antiproliferative activity against human HeLa cells after 48 hrs by MTT assay
- Assay type: functional, cell-based
Readout: IC50 (µM)

                               given_smiles  measured_target  measured_number
0  C[C@@]12CC[C@@H]3[C@@](CC[C@H]4[C@@]3(C)CCC[C@@]4(C)C(=O)OCc3cn(-c4ccccc4)nn3)(CC1=O)C2             HeLa             5.83

---

- Test system: HCT-116
- Experimental Details: Antiproliferative activity against human HCT116 cells after 48 hrs by MTT assay
- Assay type: functional, cell-based
- Recorded Conditions: HCT-116, 48 h
Readout: IC50 (µM)

In [3]: df
Out[3]:
                               given_smiles  measured_target  readout  unit_symbol  measured_number
0  C[C@@]12CC[C@@H]3[C@@](CC[C@H]4[C@@]3(C)CCC[C@@]4(C)C(=O)OCc3cn(CCCc4ccccc4)nn3)(CC1=O)C2          HCT-116     IC50           µM              6.6

---

- Test system: A549
- Experimental Details: Antiproliferative activity against human A549 cells after 48 hrs by MTT assay
- Type: functional, cell-based
- Recorded Conditions: A549, 48 h
Readout: IC50

                               given_smiles  readout   result
0  C[C@@]12CC[C@@H]3[C@@](CC[C@H]4[C@@]3(C)CCC[C@@]4(C)C(=O)OCc3cn(CCCc4ccccc4)nn3)(CC1=O)C2     IC50  9.95 µM
1  C=C1C[C@@]23CC[C@H]4[C@@H](CCC[C@@]4(C)COC(=O)/C=C/C(F)(F)F)[C@@H]2CC[C@]1(O)C3     IC50   4.1 µM

---

- Test system: ASPC1
- Experimental Details: Antiproliferative activity against human AsPC1 cells after 48 hrs by MTT assay
- Assay type: functional, cell-based
- Recorded Conditions: ASPC1, 48 h
Readout: IC50 (µM)

In [3]: df
Out[3]:
                               given_smiles  measured_number
0  C[C@@]12CC[C@@H]3[C@@](CC[C@H]4[C@@]3(C)CCC[C@@]4(C)C(=O)OCc3cn(CCCc4ccccc4)nn3)(CC1=O)C2             4.79
